- Experimental Target: cAMP and cAMP-inhibited cGMP 3',5'-cyclic phosphodiesterase 10A (Homo sapiens, UniProt Q9Y233)
- Sequence (Q9Y233 as listed by the source): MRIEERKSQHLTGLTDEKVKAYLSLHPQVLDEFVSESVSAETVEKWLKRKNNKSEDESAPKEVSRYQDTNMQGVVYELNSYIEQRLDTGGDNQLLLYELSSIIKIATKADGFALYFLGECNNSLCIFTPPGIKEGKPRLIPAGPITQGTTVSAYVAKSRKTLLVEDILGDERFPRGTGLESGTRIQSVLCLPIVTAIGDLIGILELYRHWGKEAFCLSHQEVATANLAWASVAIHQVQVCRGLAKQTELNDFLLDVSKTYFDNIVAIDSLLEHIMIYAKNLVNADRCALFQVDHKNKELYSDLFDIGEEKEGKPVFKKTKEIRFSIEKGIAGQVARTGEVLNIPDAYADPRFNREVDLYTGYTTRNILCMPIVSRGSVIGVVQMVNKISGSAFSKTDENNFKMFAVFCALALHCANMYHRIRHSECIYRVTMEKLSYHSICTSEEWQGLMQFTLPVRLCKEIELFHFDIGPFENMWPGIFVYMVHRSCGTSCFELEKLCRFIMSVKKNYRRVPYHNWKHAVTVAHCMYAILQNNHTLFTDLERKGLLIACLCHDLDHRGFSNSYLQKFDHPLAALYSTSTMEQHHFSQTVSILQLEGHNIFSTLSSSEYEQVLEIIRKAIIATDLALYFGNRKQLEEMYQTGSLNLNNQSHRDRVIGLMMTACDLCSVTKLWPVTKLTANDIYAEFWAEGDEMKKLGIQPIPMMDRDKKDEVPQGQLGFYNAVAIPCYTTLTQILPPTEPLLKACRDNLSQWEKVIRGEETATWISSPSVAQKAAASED
Outcome Measure: IC50 (nM)
Output spec: scalar in nM, unitless text.

Observe how each entry below is paired with its result.
| Compound | Outcome Measure | Uom | Assay Result |
| --- | --- | --- | --- |
| COc1ccccc1-c1cn2c(n1)C[C@H](NC(=O)c1c(C(=O)N(C)CCF)cnn1C)CC2 [Roche-Dataset for PDE10A, Compound 351] | IC50 | nM | 173 |
| Cn1ncc(C(=O)NCc2cccc(C(F)(F)F)n2)c1C(=O)Nc1ccn2cc(-c3ccccc3)nc2n1 [Roche-Dataset for PDE10A, Compound 1157] | IC50 | nM | 4780 |

O=C(NC1(c2ccc(Cl)cc2)CCC1)c1nc(C2CC2)cnc1Nc1cncnc1 [Roche-Dataset for PDE10A, Compound 1074] has a reported IC50 of 863
